Tested on: Staphylococcus aureus ATCC 25923

molecule	MIC / µM
CC(C)C[C@H](NC(=O)CNC(=O)[C@H](CC(C)C)NC(=O)[C@H](Cc1ccccc1)NC(=O)[C@@H](NC(=O)[C@@H](N)CCCCN)C(C)C)C(=O)N[C@@H](CCCCN)C(=O)O [KVFLGLK]	49.7
CC[C@H](C)[C@H](NC(=O)[C@H](CCCN=C(N)N)NC(=O)[C@H](C)NC(=O)CNC(=O)[C@@H](N)CCCN=C(N)N)C(=O)N[C@H](C(=O)N[C@H](C(=O)N[C@H](C(=O)N[C@@H](CCCN=C(N)N)C(=O)N[C@H](C(=O)N[C@@H](C)C(=O)N[C@@H](CCCN=C(N)N)C(N)=O)C(C)C)[C@@H](C)CC)C(C)C)C(C)C [RGARIVVIRVAR]	22.7
CC[C@H](C)[C@H](NC(=O)[C@H](CC(C)C)NC(=O)[C@@H]1CCCN1C(=O)[C@H](CC(C)C)NC(=O)[C@H](CCCCN)NC(=O)[C@H](CCCCN)NC(=O)[C@H](CC(C)C)NC(=O)[C@H](CC(C)C)NC(=O)[C@H](C)NC(=O)[C@@H](NC(=O)[C@H](Cc1ccccc1)NC(=O)CN)C(C)C)C(=O)N[C@@H](CC(C)C)C(=O)N[C@@H](CCCCN)C(=O)N[C@@H](Cc1cnc[nH]1)C(=O)N[C@@H](CC(C)C)C(=O)N[C@@H](Cc1cnc[nH]1)C(N)=O [GFVALLKKLPLILKHLH]	15

###

Test system Streptococcus mutans, MIC listed for each of the compounds.

smiles	systemName	unitAbbreviation	valuePrefix	MIC
CC(C)C[C@H](NC(=O)[C@H](CC(C)C)NC(=O)[C@H](CCCN=C(N)N)NC(=O)[C@H](Cc1cnc[nH]1)NC(=O)[C@@H](NC(=O)[C@H](CCCN=C(N)N)NC(=O)CNC(=O)[C@@H](NC(=O)[C@@H]1CCCN1C(=O)[C@@H](N)Cc1ccccc1)C(C)C)C(C)C)C(=O)N[C@@H](CCCN=C(N)N)C(=O)N[C@@H](CCCCN)C(=O)O	Streptococcus mutans	µM	=	21.7
CC[C@H](C)[C@H](NC(=O)[C@@H](N)CCCN=C(N)N)C(=O)N[C@@H](CC(C)C)C(=O)N[C@@H](CCCCN)C(=O)N[C@@H](CCC(=O)O)C(=O)N[C@@H](CC(C)C)C(=O)N[C@@H](CCCCN)C(=O)N[C@@H](CC(N)=O)C(=O)N[C@@H](CC(C)C)C(=O)N[C@@H](Cc1ccccc1)C(=O)N[C@@H](CCCCN)C(=O)O	Streptococcus mutans	µM	≥	178
NC(=O)[C@H](Cc1ccccc1)NC(=O)[C@H](CCCN=C(N)N)NC(=O)[C@H](CCCN=C(N)N)NC(=O)[C@H](Cc1c[nH]c2ccccc12)NC(=O)[C@H](Cc1c[nH]c2ccccc12)NC(=O)[C@H](CCCN=C(N)N)NC(=O)[C@@H](N)CCCN=C(N)N	Streptococcus mutans	µM	=	14.6

###

Tested on: Pseudomonas aeruginosa
experiment: ≥ marks a high value that may be exact or a test limit, other limits are often not marked, values filed in µg/mL are converted to µM

compound	unitAbbreviation	valuePrefix	MIC
CC[C@H](C)[C@H](N)C(=O)N[C@@H](CC(C)C)C(=O)N[C@@H](C)C(=O)N[C@@H](Cc1c[nH]c2ccccc12)C(=O)N[C@@H](CCCCN)C(=O)N[C@@H](Cc1c[nH]c2ccccc12)C(=O)N[C@@H](C)C(=O)N[C@@H](Cc1c[nH]c2ccccc12)C(=O)N[C@@H](Cc1c[nH]c2ccccc12)C(=O)N[C@@H](C)C(=O)N[C@@H](Cc1c[nH]c2ccccc12)C(=O)N[C@@H](CCCN=C(N)N)C(=O)N[C@@H](CCCN=C(N)N)C(N)=O [ILAWKWAWWAWRR]	µM	>	100
CC[C@H](C)[C@H](NC(=O)[C@H](CC(C)C)NC(=O)[C@H](Cc1cnc[nH]1)NC(=O)CNC(=O)[C@@H]1CCCN1C(=O)[C@@H](NC(=O)[C@H](CCCCN)NC(=O)[C@H](CO)NC(=O)[C@H](Cc1c[nH]c2ccccc12)NC(=O)[C@H](CCSC)NC(=O)CN)[C@@H](C)CC)C(=O)N[C@@H](CCCN=C(N)N)C(N)=O [GMWSKIPGHLIR]	µM	>	100
CSCC[C@@H]1NC(=O)[C@H](CC(C)C)NC(=O)[C@H](C)NC(=O)[C@H](CCCN=C(N)N)NC(=O)[C@H](CC(N)=O)NC(=O)[C@@H](NC(=O)[C@H](CCCCN)NC(=O)[C@H](CC(N)=O)NC(=O)[C@H](CCCN=C(N)N)NC(=O)[C@@H]2CCCN2C(=O)[C@H](CCSC)NC(=O)[C@H](CO)NC(=O)[C@H](CC(C)C)NC(=O)[C@H](C)NC(=O)[C@@H](N)CC(N)=O)CSSC[C@@H](C(=O)N[C@@H](Cc2ccccc2)C(=O)NCC(=O)O)NC1=O [NALSMPRNKCNRALMCFG]	µM	=	6.17
CC[C@H](C)[C@H](NC(=O)[C@H](CCCN=C(N)N)NC(=O)[C@H](Cc1c[nH]c2ccccc12)NC(=O)[C@@H](NC(=O)[C@@H](NC(=O)[C@H](CC(C)C)NC(=O)[C@H](Cc1c[nH]c2ccccc12)NC(=O)[C@H](CCCN=C(N)N)NC(=O)[C@H](CCC(N)=O)NC(=O)[C@@H](N)C(C)C)[C@@H](C)CC)C(C)C)C(=O)N[C@@H](CCCN=C(N)N)C(=O)N[C@@H](CCCCN)C(N)=O [VQRWLIVWRIRK]	µM	=	11.5
CC[C@H](C)[C@@H]1NC(=O)CNC(=O)[C@H](CCCCN)NC(=O)[C@H](Cc2ccc(O)cc2)NC(=O)[C@@H]2CSSC[C@H](NC1=O)C(=O)N[C@@H](Cc1ccccc1)C(=O)N[C@@H](CCCCN)C(=O)N[C@@H](CCCCN)C(=O)N[C@H](C(=O)N[C@@H](CCCCN)C(N)=O)CSSC[C@H](NC(=O)[C@H](Cc1ccccc1)NC(=O)[C@@H](N)CCCN=C(N)N)C(=O)N[C@@H](Cc1c[nH]c3ccccc13)C(=O)N[C@@H](CCCCN)C(=O)N[C@@H](C(C)C)C(=O)N2 [RFCWKVCYKGICFKKCK]	µM	=	1.87

###

Test system Staphylococcus aureus ATCC 25923, MIC listed for each of the compounds.
resultType: MIC

compound	resultType	observedValue
CC[C@H](C)[C@H](NC(=O)[C@H](CCCCN)NC(=O)[C@H](CCCCN)NC(=O)[C@@H](NC(=O)[C@H](CC(C)C)NC(=O)[C@H](CC(C)C)NC(=O)[C@H](CCCCN)NC(=O)CN)C(C)C)C(=O)N[C@H](C(=O)N[C@@H](CO)C(=O)N[C@@H](CC(C)C)C(=O)N[C@H](C(=O)N[C@@H](CCCN=C(N)N)C(=O)N[C@@H](CO)C(=O)N[C@@H](C)C(N)=O)C(C)C)C(C)C [GKLLVKKIVSLVRSA]	MIC	> 25 µM
CC(C)C[C@H](NC(=O)[C@H](CC(C)C)NC(=O)[C@H](CCCN=C(N)N)NC(=O)[C@H](CCCN=C(N)N)NC(=O)[C@H](CC(C)C)NC(=O)[C@H](Cc1c[nH]c2ccccc12)NC(=O)[C@H](CCCN=C(N)N)NC(=O)[C@H](CC(C)C)NC(=O)[C@H](CC(C)C)NC(=O)[C@H](CCCN=C(N)N)NC(=O)[C@H](CCCN=C(N)N)NC(=O)[C@@H](N)CC(C)C)C(=O)N[C@@H](CCCN=C(N)N)C(=O)N[C@@H](CCCN=C(N)N)C(=O)O [LRRLLRWLRRLLRR]	MIC	0.789 µM

###

The entries below come with measured MIC values attached.
System: Pseudomonas aeruginosa KCTC 1637
experiment: ≥ marks a high value that may be exact or a test limit, other limits are often not marked, values filed in µg/mL are converted to µM
resultType: MIC (µM)

smiles	resultType	unitAbbreviation	valuePrefix	observedValue
CC[C@H](C)[C@H](NC(=O)[C@H](CCCCN)NC(=O)[C@H](CCCCN)NC(=O)[C@H](Cc1ccccc1)NC(=O)[C@H](Cc1c[nH]c2ccccc12)NC(=O)[C@@H](N)CCCCN)C(=O)N1CCC[C@H]1C(=O)N[C@@H](CCCCN)C(=O)N[C@@H](Cc1ccccc1)C(=O)N[C@@H](CC(C)C)C(=O)N[C@@H](Cc1cnc[nH]1)C(=O)N[C@@H](CC(C)C)C(=O)N[C@@H](CC(C)C)C(=O)N[C@@H](CCCCN)C(=O)N[C@@H](CCCCN)C(=O)N[C@@H](Cc1ccccc1)C(N)=O	MIC	µM	=	3.12
CC[C@H](C)[C@H](NC(=O)[C@H](Cc1c[nH]c2ccccc12)NC(=O)[C@H](CCCN=C(N)N)NC(=O)[C@@H](NC(=O)[C@@H](NC(=O)[C@H](CCCN=C(N)N)NC(=O)[C@H](CCCCN)NC(=O)[C@@H](N)Cc1c[nH]c2ccccc12)[C@@H](C)CC)C(C)C)C(=O)N[C@@H](CCCCN)C(=O)N[C@@H](CCCN=C(N)N)C(=O)N[C@@H](Cc1c[nH]c2ccccc12)C(=O)N[C@@H](CC(C)C)C(=O)N[C@@H](CCCN=C(N)N)C(N)=O	MIC	µM	=	4
CC(C)C[C@H](NC(=O)[C@H](CC(C)C)NC(=O)[C@H](CCCCN)NC(=O)[C@H](CC(C)C)NC(=O)[C@H](CC(C)C)NC(=O)[C@H](CCCCN)NC(=O)[C@H](CCCCN)NC(=O)[C@H](CC(C)C)NC(=O)[C@H](CC(C)C)NC(=O)[C@H](CCCCN)NC(=O)[C@H](CCCCN)NC(=O)[C@H](Cc1c[nH]c2ccccc12)NC(=O)[C@@H](N)CCCCN)C(=O)N[C@@H](CCCCN)C(=O)N[C@@H](CCCCN)C(=O)O	MIC	µM	≥	32
CC[C@H](C)[C@H](NC(=O)[C@H](CC(C)C)NC(=O)[C@@H](N)CC(C)C)C(=O)N[C@H](C(=O)N[C@@H](CC(C)C)C(=O)N[C@@H](CCCCN)C(=O)N[C@@H](CCCCN)C(=O)N[C@@H](CCCCN)C(=O)N[C@@H](Cc1c[nH]c2ccccc12)C(=O)N[C@@H](CCCCN)C(=O)N[C@@H](CCCCN)C(=O)N[C@@H](CCC(N)=O)C(=O)N[C@@H](C)C(=O)N[C@@H](CCCCN)C(=O)N[C@@H](C)C(=O)N[C@@H](CCCCN)C(=O)N[C@@H](CO)C(=O)N[C@@H](CCCCN)C(N)=O)[C@@H](C)CC	MIC	µM	=	8
